# target entity: human IL-6 (human, UniProt P05231 30-212)
# Sequence (P05231 30-212 limits assumed): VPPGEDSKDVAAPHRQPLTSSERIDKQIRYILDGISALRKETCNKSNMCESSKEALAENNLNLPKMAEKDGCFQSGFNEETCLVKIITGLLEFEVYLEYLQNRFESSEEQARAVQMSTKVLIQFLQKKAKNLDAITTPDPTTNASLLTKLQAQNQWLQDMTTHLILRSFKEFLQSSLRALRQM
# measurement description: SPR Biacore, purified, Protein A capture, 37 C
value kind: koff
Please provide the amount together with its unit, number first.

# annotated cases, reported koff shown
Anti-IL-6 antibody, heavy chain S35H, G66D, L100V / light chain M32L, M50D, N52S, M88Q (antibody, IgG1, V domains shown, IgG1; variable domains only; VL is variant III) VH: EVQLVESGGGLVQPGGSLRLSCAASGFTFSPFAMHWVRQAPGKGLEWVAKISPGGSWTYYSDTVTDRFTFSLDTSKSTAYLQMNSLRAEDTAVYYCARQVWGYYALDIWGQGTLVTVSS VL: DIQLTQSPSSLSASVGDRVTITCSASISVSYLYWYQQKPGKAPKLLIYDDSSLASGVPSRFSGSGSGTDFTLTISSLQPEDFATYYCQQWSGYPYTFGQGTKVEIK: 0.000385 s⁻¹
Anti-IL-6 antibody, heavy chain S35H, G66D, L100K / light chain M32L, M50D, N52S, M88Q (antibody, IgG1, V domains shown, IgG1; variable domains only; VL is variant III) VH: EVQLVESGGGLVQPGGSLRLSCAASGFTFSPFAMHWVRQAPGKGLEWVAKISPGGSWTYYSDTVTDRFTFSLDTSKSTAYLQMNSLRAEDTAVYYCARQKWGYYALDIWGQGTLVTVSS VL: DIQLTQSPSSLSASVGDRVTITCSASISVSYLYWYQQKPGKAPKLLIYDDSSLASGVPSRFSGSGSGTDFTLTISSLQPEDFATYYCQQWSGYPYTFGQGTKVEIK: 0.000279 s⁻¹

Attention now shifts to the item below.
Req: Fill in reported koff for this entry: Anti-IL-6 antibody, heavy chain S35H, G66D, L100Q / light chain M32L, M50D, N52S, M88Q (antibody, IgG1, V domains shown, IgG1; variable domains only; VL is variant III) VH: EVQLVESGGGLVQPGGSLRLSCAASGFTFSPFAMHWVRQAPGKGLEWVAKISPGGSWTYYSDTVTDRFTFSLDTSKSTAYLQMNSLRAEDTAVYYCARQQWGYYALDIWGQGTLVTVSS VL: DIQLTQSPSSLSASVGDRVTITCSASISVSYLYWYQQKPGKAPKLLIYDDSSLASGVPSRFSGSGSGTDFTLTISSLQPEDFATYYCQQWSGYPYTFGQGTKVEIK
Resp: 0.000336 s⁻¹
